assay: MTT cell viability assay (cytotoxicity) in J774 macrophages; type: cell-based, murine; conditions: mouse
measure: viability at 24 h, 20 µM (%)
Report only the number, with the unit % understood.

Below, 5 compounds whose answers are already recorded.
[
  {
    "compound": "CCCCCCCCCCCC1=C(O)C(=O)C2=C(Nc3ccccc3C2c2ccc(C(=O)OC)cc2)C1=O (stereo not shown)",
    "valueUnits": "%",
    "viability at 24 h, 20 µM": 29.6
  },
  {
    "compound": "CCCCCCCCCCCC1=C(O)C(=O)c2c(nc3ccccc3c2-c2ccc(C(=O)OC)cc2)C1=O",
    "valueUnits": "%",
    "viability at 24 h, 20 µM": 42.2
  },
  {
    "compound": "CCCCCCCCCCCC1=C(O)C(=O)C2=C(Nc3cc(C)cc(C)c3C2c2ccc([N+](=O)[O-])cc2)C1=O (stereo not shown)",
    "valueUnits": "%",
    "viability at 24 h, 20 µM": 33.1
  },
  {
    "compound": "CCCCCCCCCCCC1=C(O)C(=O)c2c(nc3ccccc3c2-c2ccc(Br)cc2)C1=O",
    "valueUnits": "%",
    "viability at 24 h, 20 µM": 74.5
  },
  {
    "compound": "CCCCCCCCCCCC1=C(O)C(=O)C2=C(Nc3ccc(OC)cc3C2c2ccc([N+](=O)[O-])cc2)C1=O (stereo not shown)",
    "valueUnits": "%",
    "viability at 24 h, 20 µM": 37.8
  }
]

Notebook: CCCCCCCCCCCC1=C(O)C(=O)C2=C(Nc3ccccc3C2c2ccc(Br)cc2)C1=O (stereo not shown) , viability at 24 h, 20 µM read as 32.9

Notebook: "CCCCCCCCCCCC1=C(O)C(=O)c2c(nc3ccccc3c2-c2ccc(F)cc2)C1=O" , viability at 24 h, 20 µM read as 76.6

Reference source for all entries: paper PMC9972480
